STUDY SYSTEM: FXa (Homo sapiens)
Construct: 8 μg/mL FXa solution; purchased
Sequence (P01008 33-464): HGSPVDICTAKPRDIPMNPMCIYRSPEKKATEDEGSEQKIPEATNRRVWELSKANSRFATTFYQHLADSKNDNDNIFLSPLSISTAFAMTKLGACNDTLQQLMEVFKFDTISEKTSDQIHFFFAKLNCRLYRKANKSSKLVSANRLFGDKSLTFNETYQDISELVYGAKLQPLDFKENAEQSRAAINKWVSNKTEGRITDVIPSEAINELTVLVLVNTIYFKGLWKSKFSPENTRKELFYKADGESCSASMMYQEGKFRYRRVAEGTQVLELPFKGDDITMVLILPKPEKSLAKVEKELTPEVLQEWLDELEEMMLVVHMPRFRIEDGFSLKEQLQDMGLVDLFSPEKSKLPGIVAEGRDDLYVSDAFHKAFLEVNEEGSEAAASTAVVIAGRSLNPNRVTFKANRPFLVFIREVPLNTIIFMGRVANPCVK
MEASUREMENT NOTES: AT-dependent Xa inhibitory activity assay
Format: biochemical
PROTOCOL CONDITIONS: in presence of AT; read-out: Drug concentration required to inhibit 50% of coagulation factor activity (IC50, ng/mL) Xa (AT)
// reported IC50 for each item listed
MEASUREMENT LABEL: IC50

COMPOUND	STUDY SYSTEM	VALUE MEASURED
CC(=O)N[C@H]1[C@H](O[C@@H]([C@H](O[C@@H]2O[C@@H](C)[C@@H](OS(=O)(=O)O)[C@@H](OS(=O)(=O)O)[C@@H]2O)[C@@H](O)CO)[C@H](O)C(=O)O)O[C@H](COS(=O)(=O)O)[C@H](OS(=O)(=O)O)[C@@H]1O[C@@H]1OC(C(=O)O)=C[C@H](O[C@@H]2O[C@@H](C)[C@@H](OS(=O)(=O)O)[C@@H](OS(=O)(=O)O)[C@@H]2O)[C@H]1O	FXa (Homo sapiens)	> 3760 nM
CC(=O)NC1C(OC2C(C(=O)O)OC(OC3C(NC(C)=O)C(OC4C(C(=O)O)OC(OC5C(NC(C)=O)C(OC6C(C(=O)O)OC(O)C(O)C6OC6OC(C)C(OS(=O)(=O)O)C(OS(=O)(=O)O)C6O)OC(COS(=O)(=O)O)C5OS(=O)(=O)O)C(O)C4OC4OC(C)C(OS(=O)(=O)O)C(OS(=O)(=O)O)C4O)OC(COS(=O)(=O)O)C3OS(=O)(=O)O)C(O)C2OC2OC(C)C(OS(=O)(=O)O)C(OS(=O)(=O)O)C2O)OC(COS(=O)(=O)O)C(OS(=O)(=O)O)C1OC1OC(C(=O)O)=CC(OC2OC(C)C(OS(=O)(=O)O)C(OS(=O)(=O)O)C2O)C1O (centres unmarked)	FXa (Homo sapiens)	> 1660 nM

The values you see were collected from patent US12280072B2.
